Each item that follows carries a reported Cmax.
test-protocol: Cmax in BALB/c mouse at 5 mg/kg, po after 24 hrs by LC/MS/MS method
Assay type: ADME, organism-based
Design: dose 5 mg/kg, route oral
assay-setup: in vivo
Kindly write the number and append the unit.

1) COc1cc2ncnc(Nc3ccc(F)c(Cl)c3)c2cc1NC(=O)/C(F)=C\CN1CCCCC1	90 nM

Look at this compound and give its reported Cmax. COc1cc2ncnc(Nc3ccc(F)c(Cl)c3)c2cc1NC(=O)/C(F)=C/CN1CCCCC1
830 nM

---

subject-of-test: hERG (KCNH2) (Homo sapiens)
Sequence (Q12809 whole entry): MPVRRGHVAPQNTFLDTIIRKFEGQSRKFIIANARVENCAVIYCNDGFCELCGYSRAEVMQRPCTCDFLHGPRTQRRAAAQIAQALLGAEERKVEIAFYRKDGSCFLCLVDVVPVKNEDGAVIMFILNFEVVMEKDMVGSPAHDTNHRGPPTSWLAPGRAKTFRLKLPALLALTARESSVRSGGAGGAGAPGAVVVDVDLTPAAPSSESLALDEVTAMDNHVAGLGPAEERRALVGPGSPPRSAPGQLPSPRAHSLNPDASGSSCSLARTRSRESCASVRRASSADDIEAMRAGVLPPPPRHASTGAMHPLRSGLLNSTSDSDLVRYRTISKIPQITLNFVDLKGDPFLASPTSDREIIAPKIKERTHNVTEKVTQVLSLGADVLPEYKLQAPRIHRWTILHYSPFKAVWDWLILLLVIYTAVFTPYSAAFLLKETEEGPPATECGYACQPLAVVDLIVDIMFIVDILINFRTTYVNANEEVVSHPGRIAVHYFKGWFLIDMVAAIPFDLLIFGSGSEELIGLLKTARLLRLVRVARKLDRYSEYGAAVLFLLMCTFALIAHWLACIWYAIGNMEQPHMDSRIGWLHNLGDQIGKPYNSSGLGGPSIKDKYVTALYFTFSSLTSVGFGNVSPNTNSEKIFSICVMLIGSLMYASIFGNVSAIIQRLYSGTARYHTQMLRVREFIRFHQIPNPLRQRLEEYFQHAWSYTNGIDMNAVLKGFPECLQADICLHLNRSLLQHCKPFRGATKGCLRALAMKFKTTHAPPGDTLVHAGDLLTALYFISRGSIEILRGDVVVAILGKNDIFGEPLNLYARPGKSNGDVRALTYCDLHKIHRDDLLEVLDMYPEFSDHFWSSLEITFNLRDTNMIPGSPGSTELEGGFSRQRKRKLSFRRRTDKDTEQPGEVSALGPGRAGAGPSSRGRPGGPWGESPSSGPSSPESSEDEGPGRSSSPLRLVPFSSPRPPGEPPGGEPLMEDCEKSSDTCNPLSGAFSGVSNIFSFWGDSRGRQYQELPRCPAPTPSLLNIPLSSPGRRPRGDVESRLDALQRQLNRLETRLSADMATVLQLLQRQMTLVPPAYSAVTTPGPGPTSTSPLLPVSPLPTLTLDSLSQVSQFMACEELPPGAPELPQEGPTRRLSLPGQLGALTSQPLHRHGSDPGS
test-protocol: Inhibition of human ERG assessed as reduction in channel currents at 10 uM
Each item that follows carries a reported inhibition at 10 µM.

1. COc1cc2ncnc(Nc3ccc(F)c(Cl)c3)c2cc1NC(=O)/C(F)=C/CN1CCCCC1	11.8%

Look at this compound and give its reported inhibition at 10 µM. CCOc1cc2ncnc(Nc3ccc(OCc4ccccn4)c(Cl)c3)c2cc1NC(=O)/C(F)=C/CN(C)C
3.06%

Look at this compound and give its reported inhibition at 10 µM. O=C(Nc1cc2c(Nc3ccc(F)c(Cl)c3)ncnc2cc1O[C@H]1CCOC1)/C(F)=C/CN1CCOCC1
11.1%

Look at this compound and give its reported inhibition at 10 µM. CN(C)C/C=C(\F)C(=O)Nc1cc2c(Nc3ccc(F)c(Cl)c3)ncnc2cc1O[C@H]1CCOC1
14.8%

Look at this compound and give its reported inhibition at 10 µM. COc1cc2ncnc(Nc3ccc(F)c(Cl)c3)c2cc1NC(=O)/C(F)=C/CN(C)C
18.4%

Look at this compound and give its reported inhibition at 10 µM. CN(C)C/C=C(/F)C(=O)Nc1cc2c(Nc3ccc(F)c(Cl)c3)ncnc2cc1O[C@H]1CCOC1
39.5%

---

subject-of-test: Tyrosine-protein kinase SYK (Homo sapiens, UniProt P43405)
outcome-measure: IC50

Look at this compound and give its reported IC50. COc1cc2ncnc(Nc3ccc(F)c(Cl)c3)c2cc1NC(=O)/C(F)=C/CN(C)C
> 10 µM

---

test-protocol: Ratio of drug level in brain to plasma in BALB/c mouse at 30 mg/kg, po after 6 hrs by LC/MS/MS method
Assay type: ADME, organism-based
Design: dose 30 mg/kg, route oral
assay-setup: read-out: BPR
Each item that follows carries a reported Kp at 6 h.

The cases that follow already have their Kp at 6 h on record.
1) CN(C)C/C=C(\F)C(=O)Nc1cc2c(Nc3ccc(F)c(Cl)c3)ncnc2cc1O[C@H]1CCOC1	0.79
2) CCOc1cc2ncnc(Nc3ccc(OCc4ccccn4)c(Cl)c3)c2cc1NC(=O)/C(F)=C/CN(C)C	0.29

Look at this compound and give its reported Kp at 6 h. COc1cc2ncnc(Nc3ccc(F)c(Cl)c3)c2cc1NC(=O)/C(F)=C/CN1CCCCC1
2.31

---

subject-of-test: UniProt:P00533
Sequence (P00533 whole entry): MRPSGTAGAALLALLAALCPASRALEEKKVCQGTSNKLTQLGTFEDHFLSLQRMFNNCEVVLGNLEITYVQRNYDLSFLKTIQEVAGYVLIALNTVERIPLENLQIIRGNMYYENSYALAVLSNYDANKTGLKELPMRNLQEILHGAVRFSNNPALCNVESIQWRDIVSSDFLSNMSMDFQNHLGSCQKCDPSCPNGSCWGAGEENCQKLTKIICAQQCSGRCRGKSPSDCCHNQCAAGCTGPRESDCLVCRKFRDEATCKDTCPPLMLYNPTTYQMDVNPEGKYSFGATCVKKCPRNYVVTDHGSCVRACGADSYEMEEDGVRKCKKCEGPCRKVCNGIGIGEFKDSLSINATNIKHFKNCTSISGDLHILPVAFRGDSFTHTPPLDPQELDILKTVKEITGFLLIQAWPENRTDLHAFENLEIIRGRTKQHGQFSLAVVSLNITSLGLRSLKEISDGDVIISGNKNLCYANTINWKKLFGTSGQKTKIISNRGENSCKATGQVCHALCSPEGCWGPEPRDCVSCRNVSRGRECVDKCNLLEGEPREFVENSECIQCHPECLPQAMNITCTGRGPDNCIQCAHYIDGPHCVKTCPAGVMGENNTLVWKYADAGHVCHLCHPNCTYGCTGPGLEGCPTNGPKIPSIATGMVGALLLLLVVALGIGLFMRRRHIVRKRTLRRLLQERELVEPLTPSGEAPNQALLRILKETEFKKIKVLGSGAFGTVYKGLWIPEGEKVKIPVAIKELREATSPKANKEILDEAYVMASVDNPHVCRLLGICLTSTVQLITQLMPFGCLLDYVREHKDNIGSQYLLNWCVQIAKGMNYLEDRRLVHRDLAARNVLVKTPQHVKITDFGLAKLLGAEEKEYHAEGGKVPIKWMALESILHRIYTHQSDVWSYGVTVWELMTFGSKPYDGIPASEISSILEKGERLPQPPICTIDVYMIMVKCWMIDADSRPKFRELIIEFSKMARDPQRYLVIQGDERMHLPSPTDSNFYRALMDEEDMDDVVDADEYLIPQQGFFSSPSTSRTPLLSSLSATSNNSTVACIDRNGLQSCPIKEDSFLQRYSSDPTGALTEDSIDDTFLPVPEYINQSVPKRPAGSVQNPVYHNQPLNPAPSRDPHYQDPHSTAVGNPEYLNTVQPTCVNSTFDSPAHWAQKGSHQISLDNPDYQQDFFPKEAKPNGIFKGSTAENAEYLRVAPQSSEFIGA
outcome-measure: IC50
Kindly write the number and append the unit.

The cases that follow already have their IC50 on record.
1. CCOc1cc2ncnc(Nc3ccc(OCC4CC4)c(Cl)c3)c2cc1NC(=O)/C(F)=C\CN(C)C	11.2 nM
2. CCOc1cc2ncnc(Nc3ccc(Oc4ccc(C)nc4)c(Cl)c3)c2cc1NC(=O)/C(F)=C/CN(C)C	4.5 nM
3. CCOc1cc2ncnc(Nc3ccc(OCC4CC4)c(Cl)c3)c2cc1NC(=O)/C(F)=C/CN(C)C	3.6 nM

Look at this compound and give its reported IC50. O=C(Nc1cc2c(Nc3ccc(F)c(Cl)c3)ncnc2cc1O[C@H]1CCOC1)/C(F)=C/CN1CCCCC1
2.6 nM
